Let's go through some recorded IC50 values for USP19 (Homo sapiens (Human)) together.

# Molecule, IC50
measured = [
    ("C[C@H](CC1CCCCC1)C(=O)N1CCC(O)(Cn2cc(C(=O)N(C)C)c(-c3ccc(CO)cc3)cc2=O)C2(CCCC2)C1 (stereo partly drawn) [Example 162]", "< 0.5 µM"),
    ("COc1ccccc1-c1cc(=O)n(CC2(O)CCN(C(=O)C[C@@H](C)c3ccccc3)CC2)cc1C(=O)N(C)C(C)C [Example 89]", "0.5 to 5 µM"),
    ("C[C@H](CC(F)(F)F)C(=O)N1CC[C@@](O)(Cn2cc(C(=O)N3CCNCC3)c(-c3ccccc3F)cc2=O)C2(CCCC2)C1 [Example 225]", "0.5 to 5 µM"),
]

API: value(readout=IC50, system=USP19 (Homo sapiens (Human))) for record CC1(C(=O)N2CCC(O)(Cn3cnc(-c4ccccc4F)cc3=O)CC2)CCCCC1 [Example 42]
5 to 50 µM

API: value(readout=IC50, system=USP19 (Homo sapiens (Human))) for record O=C(CCC1CCCC1)N1CCC(O)(Cn2cnc(-c3ccccc3F)cc2=O)CC1 [Example 4]
50 to 250 µM

API: value(readout=IC50, system=USP19 (Homo sapiens (Human))) for record CC(C)N(C)C(=O)c1cn(CC2(O)CCN(C(=O)C[C@@H](C)c3ccccc3)CC2)c(=O)cc1-c1ccccc1 [Example 101]
5 to 50 µM

API: value(readout=IC50, system=USP19 (Homo sapiens (Human))) for record C[C@H](CC(=O)N1CCC(O)(Cn2cc(C(=O)NC3CCCCC3)c(-c3ccccc3)cc2=O)CC1)c1ccccc1 [Example 65]
5 to 50 µM

API: value(readout=IC50, system=USP19 (Homo sapiens (Human))) for record C[C@H](CC(=O)N1CCC(O)(Cn2cc(C(=O)N3CCC4(CC3)OCCO4)c(-c3ccccc3)cc2=O)CC1)c1ccccc1 [Example 64]
5 to 50 µM

API: value(readout=IC50, system=USP19 (Homo sapiens (Human))) for record CN(C)C(=O)c1cn(CC2(O)CCN(C(=O)c3cc[nH]n3)CC23CCCC3)c(=O)cc1-c1ccccc1 (stereo not drawn) [Example 187]
50 to 250 µM

API: value(readout=IC50, system=USP19 (Homo sapiens (Human))) for record C[C@H](CC(=O)N1CCC(O)(Cn2cc(C(=O)N(C)C)c(-c3ccccc3)cc2=O)CC1)c1ccccc1 [Example 95]
5 to 50 µM

API: value(readout=IC50, system=USP19 (Homo sapiens (Human))) for record COc1cc(=O)n(CC2(O)CCN(C(=O)[C@H](C)CC3CCCCC3)CC23CCCC3)cc1C(=O)N(C)C (stereo partly drawn) [Example 242]
0.5 to 5 µM

API: value(readout=IC50, system=USP19 (Homo sapiens (Human))) for record CCN(CC)C(=O)c1cn(CC2(O)CCN(C(=O)C[C@@H](C)c3ccccc3)CC2)c(=O)cc1-c1ccccc1 [Example 75]
0.5 to 5 µM

API: value(readout=IC50, system=USP19 (Homo sapiens (Human))) for record C[C@H](CC(=O)N1CCC(O)(Cn2cc(C(=O)N(C)Cc3ccccc3)c(-c3ccccc3)cc2=O)CC1)c1ccccc1 [Example 105]
5 to 50 µM

API: value(readout=IC50, system=USP19 (Homo sapiens (Human))) for record C[C@H](CC1CCCCC1)C(=O)N1CCC(O)(Cn2cnc(-c3cccc(CO)c3)cc2=O)C(C)(C)C1 (stereo partly drawn) [Example 138]
< 0.5 µM

API: value(readout=IC50, system=USP19 (Homo sapiens (Human))) for record C[C@H](CC(=O)N1CCC(O)(Cn2cc(-c3cccnc3)c(-c3ccccc3)cc2=O)CC1)c1ccccc1 [Example 99]
5 to 50 µM

API: value(readout=IC50, system=USP19 (Homo sapiens (Human))) for record Cc1ccc(-c2cc(=O)n(CC3(O)CCN(C(=O)C[C@@H](C)c4ccccc4)CC3)cc2C(=O)N(C)C(C)C)cc1 [Example 96]
5 to 50 µM

API: value(readout=IC50, system=USP19 (Homo sapiens (Human))) for record C[C@H](CC(F)(F)F)C(=O)N1CC[C@@](O)(Cn2cc(C(=O)N3CCOCC3)c(-c3ccccc3)cc2=O)C2(CCCC2)C1 [Example 250]
< 0.5 µM

API: value(readout=IC50, system=USP19 (Homo sapiens (Human))) for record CC1(C)CN(C(=O)CCC2CCCCC2)CCC1(O)Cn1cnc(-c2ccccc2F)cc1=O (racemic) [Example 78]
0.5 to 5 µM

API: value(readout=IC50, system=USP19 (Homo sapiens (Human))) for record C[C@H](CC(=O)N1CCC(O)(Cn2cc(-c3ccccc3C#N)c(-c3ccccc3)cc2=O)CC1)c1ccccc1 [Example 106]
5 to 50 µM

API: value(readout=IC50, system=USP19 (Homo sapiens (Human))) for record CCCCC(CC)C(=O)N1CCC(O)(Cn2cc(C(=O)N(C)C(C)C)c(-c3ccccc3)cc2=O)CC1 (racemic) [Example 80]
5 to 50 µM

API: value(readout=IC50, system=USP19 (Homo sapiens (Human))) for record CN(C)C(=O)c1cn(CC2(O)CCN(C(=O)COC3CCCCC3)CC23CCCC3)c(=O)cc1-c1ccccc1 (stereo not drawn) [Example 194]
5 to 50 µM
